# experimental-system: Arginase-2, mitochondrial (Homo sapiens)
# assay-details: in vitro enzyme assay to detect the production of urea directly proportional to the activity of Arginase II
# Assay type: functional
# Parameters: scale not given: in the data most compounds retested in dose-response had high values
# condition-notes: 33.3 µM
readout-kind: Percent Effect (%)
Field: numeric (%). Do not append units.

Observe how each entry below is paired with its result.
{"columns": ["compound", "experimental-system", "Percent Effect [%]"],
 "data": [
  ["CCn1cnnc1CNC(=O)NC(C)C(C)C (stereo not drawn)", "Arginase-2, mitochondrial (Homo sapiens)", 0],
  ["CC(C)OCCCN1CCCC(c2nc3ccccc3n2C(C)C)C1 (stereo not drawn)", "Arginase-2, mitochondrial (Homo sapiens)", 32.9]
]}

Report Percent Effect for Cc1cccc(-n2cc(C(=O)N3CCCC(n4ccnc4)C3)nn2)c1 (stereo not drawn) tested on Arginase-2, mitochondrial (Homo sapiens).
-3.16
